A collection of compounds and their measured hERG current change (%, negative = inhibition) at 10uM
Target: human ether-à-go-go-related gene (hERG) potassium channel (human, UniProt Q12809);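 further: peak tail current of the secondary pulse compared with the same well before compound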
Sequence (Q12809 whole entry, looked up): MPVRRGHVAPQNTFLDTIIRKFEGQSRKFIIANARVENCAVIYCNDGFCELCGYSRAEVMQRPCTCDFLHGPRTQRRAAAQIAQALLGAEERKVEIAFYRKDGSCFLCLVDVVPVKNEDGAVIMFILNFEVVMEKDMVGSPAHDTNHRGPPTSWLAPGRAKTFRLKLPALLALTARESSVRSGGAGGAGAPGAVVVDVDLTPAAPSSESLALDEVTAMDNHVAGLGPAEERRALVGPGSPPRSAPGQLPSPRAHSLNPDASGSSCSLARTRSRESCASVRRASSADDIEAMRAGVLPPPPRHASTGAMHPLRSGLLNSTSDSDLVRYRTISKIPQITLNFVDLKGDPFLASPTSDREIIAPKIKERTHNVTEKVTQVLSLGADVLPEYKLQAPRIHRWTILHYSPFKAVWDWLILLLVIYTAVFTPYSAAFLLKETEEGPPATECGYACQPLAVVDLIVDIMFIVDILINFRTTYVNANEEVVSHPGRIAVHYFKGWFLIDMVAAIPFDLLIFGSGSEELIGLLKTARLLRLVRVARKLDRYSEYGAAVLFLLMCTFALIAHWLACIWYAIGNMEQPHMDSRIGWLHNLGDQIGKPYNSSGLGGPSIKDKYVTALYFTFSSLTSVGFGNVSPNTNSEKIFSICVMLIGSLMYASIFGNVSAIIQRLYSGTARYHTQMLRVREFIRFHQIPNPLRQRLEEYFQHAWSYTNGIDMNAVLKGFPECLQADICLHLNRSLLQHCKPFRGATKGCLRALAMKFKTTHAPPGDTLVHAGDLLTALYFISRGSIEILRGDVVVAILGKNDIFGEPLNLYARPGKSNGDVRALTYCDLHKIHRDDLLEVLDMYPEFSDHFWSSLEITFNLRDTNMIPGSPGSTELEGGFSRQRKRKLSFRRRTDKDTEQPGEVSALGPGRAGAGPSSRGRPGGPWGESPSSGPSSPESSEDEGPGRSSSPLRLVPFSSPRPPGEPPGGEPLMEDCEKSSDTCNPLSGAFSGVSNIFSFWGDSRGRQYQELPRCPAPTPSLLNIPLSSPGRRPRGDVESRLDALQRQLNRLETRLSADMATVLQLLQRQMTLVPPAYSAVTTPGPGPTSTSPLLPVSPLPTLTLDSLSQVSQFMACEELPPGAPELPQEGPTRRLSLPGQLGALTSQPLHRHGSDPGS
Test: primary screen, population patch clamp on CHO cells stably expressing hERG; higher = less effect of the substance
Procedure: Briefly, Chinese hamster ovary (CHO) cells stably expressing the hERG channel were dislodged from tissue culture flasks and dispensed into PPC plates. […] During the recording, background leak currents were estimated by a 100 ms step to -80 mV from an initial holding potential of -70 mV and subtracted from the subsequent current measurement. The campaign was conducted in two phases using slight differences in recording protocol. […]
The campaign covered roughly 310,000 compounds. About 14,000 (4.5%) showed an effect of 50% or more. Effects have a minus sign here. What follows is part of a selection rich in strong results, with near analogues and random picks from the rest.
I only need the number, in %, no unit after it.

Solved cases (4 shown):
C=CCN(CC=C)CCCOc1ccccc1C(=O)OC.O=C(O)C(=O)O = -72.4
CSCCC(NC(=O)c1ccc(Cl)cc1Cl)C(=O)NCc1ccccn1 (centres unmarked) = -8.59
COc1ccccc1C(=O)NCCC(=O)N1CCN(c2cccc(C(F)(F)F)c2)CC1 = -21.7
CCn1c(CN2CCCCCC2=O)nnc1SCc1cnc(-c2ccccc2)s1 = -19.3

API: the following record is the query input.
So what does the record say about hERG current change (%, negative = inhibition) at 10uM for `CS(=O)(=O)N(Cc1ccccc1)c1ccc(C(=O)NCCSCc2ccco2)cc1` ?
-18
